Reference source for all entries: patent US20220348684A1

Molecular target: mouse renalase (mouse, UniProt A7RDN6 18-342, limits assumed)
Sequence (A7RDN6 18-342 limits assumed): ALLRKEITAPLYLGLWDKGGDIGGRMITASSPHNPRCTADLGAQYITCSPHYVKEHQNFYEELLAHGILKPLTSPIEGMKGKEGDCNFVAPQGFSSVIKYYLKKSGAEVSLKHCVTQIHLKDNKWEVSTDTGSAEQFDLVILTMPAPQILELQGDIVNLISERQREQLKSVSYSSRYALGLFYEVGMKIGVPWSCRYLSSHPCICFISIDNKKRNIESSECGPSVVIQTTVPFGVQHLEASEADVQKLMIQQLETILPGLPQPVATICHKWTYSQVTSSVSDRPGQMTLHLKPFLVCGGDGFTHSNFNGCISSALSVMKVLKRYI
Experiment: cell-based or functional assay
resultType: IC50 of % cell survival, YUMM1.7 (mouse melanoma) cells (nM)
Provide only the numeric value, understood in nM.

Example cases with answers are listed next.
- binder: "M28-K14 (humanized, affinity-matured variant of M28) (antibody, V domains shown, the residue limits are my own count; also called M28-14) VH: EVQLVESGGGLVQPGGSLRLSCAASGFNLSSFAVHWVRQAPGKGLEWVALISGRGTRFYADSVKGRFTISKDTSKNTAYLQMNSLRAEDTAVYYCARYGYSGDVNRLDLWGQGTLVTVSS VL: DIQMTQSPSSLSASVGDRVTITCRASQSVYDNNNVAWYQQKPGKAPKLLIYGASTLYSGVPSRFSGSRSGTDFTLTISSLQPEDFATYYCLGEGPCSVTDCLIFGQGTKVEIKR"
  unitOfMeasure: "nM"
  number: 1.41
- binder: "monoclonal antibody 1D-28-4 (antibody, V domains shown, also called m28-RNLS; Ren1D 28-4) VH: QSVEESGGRLVTPGTPLTLTCTVSGFSLSSFAVGWVRQAPGKGLEYIGIISSVGITRYASWAAGRFTISKTSTTVDLKITSPTTEDTATYFCARYGYSGDVNRLDLWGQGTLVTVSS VL: AQVLTQTASPVSAAVGGTVTINCQASQSVYDNNNLAWYQQKPGQPPKQLIYGASTLASGVSSRFKGSGSGTQFTLTISGVQCDDAATYYCLGEFSCSSADCFAFGGGTEVVVKG"
  unitOfMeasure: "nM"
  number: 70

Below: the item to evaluate.
Query: Find the measured IC50 of % cell survival, YUMM1.7 (mouse melanoma) cells of M28-K2 (humanized, affinity-matured variant of M28) (antibody, V domains shown) VH: EVQLVESGGGLVQPGGSLRLSCAASGFNLSSFAVHWVRQAPGKGLEWVALIGVRGSLYYADSVKGRFTISKDTSKNTAYLQMNSLRAEDTAVYYCARHWYSGGVVRLDAWGQGTLVTVSS VL: DIQMTQSPSSLSASVGDRVTITCRASQSVYDNNNVAWYQQKPGKAPKLLIYGASTLYSGVPSRFSGSRSGTDFTLTISSLQPEDFATYYCLGEGPCSVTDCLIFGQGTKVEIKR and report it.
Reply: 1330
